Measured values drawn from the supplement of paper PMC11865577 for this set.

System: TO-N3 (biotin conjugate)
PROCEDURE_DETAILS: pull-down binding Z-score (relative to library population); higher = stronger binding
EXPERIMENTAL_CONDITIONS: RNA library: Library-2
Items are presented alongside their recorded pull-down binding Z-score.

>>> result("UUUUAUCAUUACUUUUAAUGGCAAAA [hsa-mir-548f-2]")
0.761
>>> result("UUCGCGGUUGGGCU [hsa-mir-3143]")
1.33
>>> result("CUUGUGGUAUUAGUCCGCACAAG [hsa-mir-100]")
0.334
>>> result("AGAACAGAUAUAUCCACAGUACACUUGGCUGUUCU [hsa-mir-4753]")
-0.943
>>> result("UCAGAUAUUUAAGUUAACAGUAUUUGA [hsa-mir-580]")
-1.1

Data request, read-out pull-down binding Z-score, for CUGUGCAGAACAUCCGCUCACCUGUACAG [hsa-mir-214]
0.0753

What about this sequence? GGAGAAGACUUUUCCUUUCCUCC [hsa-mir-4660]
-0.139

What about this sequence? GGAGCAGACAGACCCAACCUCAUGCUCC [hsa-mir-6763]
0.219

What about this sequence? GUUUGCAAGGGGUGUUUCUGUCCAUGGUCAGGC [hsa-mir-4283-1_4283-2]
0.778

What about this sequence? CCUGUUUUACAAAUAAGGAAAUAAACUCAGG [hsa-mir-1321]
-0.94

What about this sequence? GAGAACUCACGGUGCCUGUGGUUCGA [hsa-mir-3125]
0.312

What about this sequence? `AAUUGAUUCUUACUUUGUAGUUAAGAGACACACUUUCUCUAACUACCAACAUGAAGAAACAAUU`
0.281

What about this sequence? `GCUGAAAUUGUUGACACUGUGAGUGCUUUGGUUUAUGAUAAUAAGCUUAAAGCACAUAAAGACAAAUCAGC`
-0.634

What about this sequence? UUACCCAACGUCUCUGAGUCUCGGUUUUGAGAGGGUGAGUAA [hsa-mir-7973-1]
0.268

What about this sequence? UAGAGUGCUAUCUA [SHAPE_invitro_SARS-CoV-2_Motif_352]
-0.957

What about this sequence? GUCAAAGUGAC [SHAPE_invivo_SARS-CoV-2_Motif_385]
-0.434

What about this sequence? GGAGAAAAUUCC [IAV_invivo_PA_3_Motif_17+IAV_invivo_PA_3_Motif_17]
-0.797

What about this sequence? CGGCAUCAUAUGGGUUGCAACUGAGGGAGCCUUGAAUACACCAAAAGAUCACAUUGGCACCCGCAAUCCUGCUAACAAUGCUG [SHAPE_invitro_SARS-CoV-2_Motif_522]
-0.253

What about this sequence? GCCAGACAUGCUCUUGC [hsa-mir-6894]
-0.472

What about this sequence? CGCCCGACUUCGGGG [hsa-mir-4767]
-0.314
